B1: H2-Kb / E8 (parent)
chain 1: GDSVTQTEGLVTVTEGLPVKLNCTYQTTYLTIAFFWYVQYLNEAPQVLLKSSTDNKRTEHQGFHATLHKSSSSFHLQKSSAQLSDSALYYCALNTNTGKLTFGDGTVLTVKP
chain 2: EAAVTQSPRNKVAVTGGKVTLSCNQTNNHNNMYWYRQDTGHGLRLIHYSYGAGSTEKGDIPDGYKASRPSQENFSLILELATPSQTSVYFCASGDWGAGTGQLYFGEGSKLTVL
chain 3: not shown
chain 4: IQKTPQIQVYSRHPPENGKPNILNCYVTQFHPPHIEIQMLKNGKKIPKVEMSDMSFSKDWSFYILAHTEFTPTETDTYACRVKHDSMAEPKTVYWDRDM
chain 5: SIINFEKL

- Variants of: B1
- Method Notes: % of reporter cells activated (NFAT-GFP), raw; note: test concentration or dose not given here
- Setup Conditions: with E8; scale: % of reporter cells activated
Measure: ratio to parent

As a guide, the following entries are already answered.
Return reported ratio to parent; argument: chain 5 I2K
0.571

Return reported ratio to parent; argument: chain 5 F5E
0.539

Return reported ratio to parent; argument: chain 5 E6R
0.0462

[1] chain 5 I2H
[2] chain 5 I2W
I need your help: which of the pair 1 , 2 has higher ratio to parent? The response must carry the label of the picked entry.
2
(2: 3.66, 1: 0.943)
